All values here come from paper PMC5540273.

# Tested on: BMX
# experimentalParameters: concentration: 1 μM, replicates: in singlicate; n = 1;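 also: KINOMEscan kinase panel screen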
Lab note - cut at 20% for %Inh: YES if strictly below, NO if not.

• Cc1ccc(NC(=O)c2ccc(Cl)c(Cl)c2)cc1-c1ccc(C(=O)Nc2ccncc2)cc1 = YES
• COc1cc(Nc2nccc(N3CCC(NC(=O)Nc4ccc5c(c4)OCO5)C3)n2)cc(OC)c1OC (stereo not drawn) = YES
• COC(=O)Nc1nc2ccc(Oc3ccc(CC(=O)Nc4cc(C(F)(F)F)ccc4F)cc3)cc2[nH]1 = YES
• CN1CCN(Cc2ccc(NC(=O)Nc3ccc(N(C)c4ccnc(Nc5ccc(CS(C)(=O)=O)cc5)n4)cc3)cc2)CC1.Cl = NO
• Cc1ccccc1CC(=O)N1CCc2cc(-c3cn(C)c4ncnc(N)c34)ccc21 = YES
• Cl.O=C(Nc1ccc(Oc2ccc3[nH]c(NC(=O)c4ccco4)nc3c2)cc1)Nc1cc(C(F)(F)F)ccc1F = YES
• COc1cc(Nc2ccnc3cc(-c4ccncc4)ccc23)cc(OC)c1OC.Cl = NO
• O=C(Nc1n[nH]c2nc(-c3ccccc3O)ccc12)C1CC1 = YES
• CS(=O)(=O)c1cccc(CNc2nc(Nc3ccc4c(c3)CCC(=O)N4)ncc2C(F)(F)F)c1 = YES
• CN(C)CCOc1ccc(-c2cc(-c3ccc(Cl)c(O)c3)c(-c3ccncc3)[nH]2)cc1.Cl.Cl = NO
• O=C(O)C(F)(F)F.O=c1[nH]ccc2nc(N[C@@H]3CCNC3)nc(Nc3cc(Cl)cc(Cl)c3)c12 = NO
• COC(=O)Nc1nc2cc(Oc3ccc(NC(=O)Nc4cccc(SC)c4)cc3)ccc2[nH]1.Cl = YES
• O=C(Nc1c(F)cccc1F)c1cc(C(=O)c2ccccc2F)c[nH]1 = YES
• O=C(O)C(F)(F)F.O=c1[nH]ccc2nc(N[C@@H]3CCNC3)nc(Nc3ccc4c(c3)S(=O)(=O)CC4)c12 = NO
• COc1cc(Nc2nccc(N3CCC(NS(=O)(=O)c4ccc(NC(C)=O)cc4)CC3)n2)cc(OC)c1OC = NO
• Cc1cccc(Nc2nc(NCCN)ncc2C(N)=O)c1 = YES
• CN(c1ccc(NC(=O)N2CCN(CCCN3CCOCC3)CC2)cc1)c1ccnc(Nc2ccc(CS(C)(=O)=O)cc2)n1.Cl = YES
• c1ccc(Oc2ccc(Nc3ccnc4cc(-c5ccc(CN6CCCCC6)o5)ccc34)cc2)nc1 = YES
• Cl.N#CCc1ccc(Nc2nccc(Nc3ccc(Oc4ccccc4)cc3)n2)cc1 = NO
• O=C1NC(=O)C(c2ccccc2Cl)=C1Nc1cccc(Cl)c1 = YES
• Cc1nn2c(=O)cc(N3CCO[C@H](C)C3)nc2n1Cc1cccc(Cl)c1Cl = YES
• COc1cccc(NC(=O)NCCNc2ccnc(Nc3ccc(F)cc3)n2)c1 = YES
• Nc1cccc(-c2ccc3c(N)n[nH]c3c2)c1 = YES
• COc1cccc(CC(=O)N2CCc3cc(-c4cn(C)c5ncnc(N)c45)ccc32)c1 = YES
• CSc1ccc(NC2=C(c3ccc(Cl)cc3)C(=O)NC2=O)cc1 = YES
• CN(c1ccc2c(c1)nc(NCc1ccccc1)n2C)c1ccnc(Nc2ccc(CS(C)(=O)=O)cc2)n1.Cl = YES
• CNc1nccc(-c2ccc3c(N)n[nH]c3c2)n1 = YES
• Cl.Cl.NC(CNC(=O)c1cc(Br)c(-c2ccnc3[nH]ccc23)s1)c1ccccc1 (stereo not drawn) = YES
• CC(C)(C)c1ccc(C(=O)Nc2cn3cc(-n4ccnc4)ccc3n2)cc1 = YES
• Fc1cc(Cl)ccc1Nc1ccnc2cc(-c3ccc(CN4CCOCC4)o3)ccc12 = NO
• CCOc1nccc(-c2c(-c3ccc(F)cc3)ncn2C2CCNCC2)n1 = YES
• CN(c1ccc(F)c(NC(=O)c2cccc(OC(C)(C)C#N)c2Cl)c1)c1ccc2nc(NC(=O)C3CC3)sc2n1 = YES
• CC(C)c1nc(-c2ccc(F)c(NS(=O)(=O)c3c(F)cccc3F)c2)c(-c2ccnc(Nc3ccc(N4CCOCC4)nc3)n2)s1 = NO

---

# Tested on: GRK2
# Construct: gene ADRBK1
# experimentalParameters: concentration: 1 μM, replicates: in singlicate; n = 1
# %Inh values compiled below
assayReadout: %Inh

- Cc1cc(-c2c(-c3ccc(F)cc3)ncn2CCCN2CCOCC2)nc(N)n1 [SB-222517]: 0%
- O=C(Nc1n[nH]c2nc(-c3ccccc3O)ccc12)C1CC1 [SB-711880]: 0%
- Cn1cc(-c2cnc(N)c3c(-c4ccc5c(c4)CCN5C(=O)Cc4ccccc4)csc23)cn1 [GSK2593074]: 0%
- Cl.O=C(Nc1ccc(Oc2ccc3[nH]c(NC(=O)c4ccco4)nc3c2)cc1)Nc1cc(C(F)(F)F)ccc1F [GW683134]: 0%
- Cc1ccccc1CC(=O)N1CCc2cc(-c3cn(C)c4ncnc(N)c34)ccc21 [GSK2603346]: 3%
- CN(c1ccc(NC(=O)N2CCN(CCCN3CCOCC3)CC2)cc1)c1ccnc(Nc2ccc(CS(C)(=O)=O)cc2)n1.Cl [GW830899]: 0%
- CCNC(=O)/C=C/c1n[nH]c2cc(Sc3ccccc3C(=O)NC)ccc12: 25%
- Cc1ccc(C)c(NC(=O)Nc2ccc(C)c(-c3ccc(C(=O)Nc4ccncc4)cc3)c2)c1 [GSK1398473]: 0%
- O=C(Nc1n[nH]c2nc(-c3ccccc3)ccc12)C1CC1 [SB-708999]: 0%
- Cn1cc(-c2ccc3c(c2)CCN3C(=O)Cc2cc(F)cc(C(F)(F)F)c2)c2c(N)ncnc21 [GSK2635225]: 0%
- Nc1ncnc2scc(-c3ccc(NC(=O)Cc4cc(F)ccc4F)cc3)c12.O=C(O)C(F)(F)F [SB-731254-M]: 0%
- CC(C)(C)c1ccc(C(=O)Nc2cn3cc(-n4ccnc4)ccc3n2)cc1: 51%
- Cc1cccc(Nc2nc(N[C@H]3CCCC[C@H]3N)ncc2C(N)=O)c1.Cl [GSK986310]: 0%
- CN(c1ccc2c(c1)nc(NCc1ccccc1)n2C)c1ccnc(Nc2ccc(CS(C)(=O)=O)cc2)n1.Cl [GW811603]: 35%
- N#Cc1cnc2cc(-c3cnc(CNCCN4CCOCC4)s3)ccc2c1Nc1ccc(Oc2ccccc2)cc1 [GW664114]: 0%
- Cl.Cl.NC(CNC(=O)c1cc(Br)c(-c2ccnc3[nH]ccc23)s1)c1ccccc1 (centres unmarked) [GSK1322949]: 39%
- COc1ccc(NC(=O)c2ccoc2)cc1-c1ccc(C(=O)NCC2CC2)cc1 [GW810437]: 0%

---

# System: ERBB4
# experimentalParameters: concentration: 1 μM, replicates: in singlicate; n = 1
assayReadout: %Inh (%)

* CS(=O)(=O)c1cccc(CNc2nc(Nc3ccc4c(c3)CCC(=O)N4)ncc2C(F)(F)F)c1 | 3
* O=C(O)C(F)(F)F.O=c1[nH]ccc2nc(N[C@@H]3CCNC3)nc(Nc3cc(Cl)cc(Cl)c3)c12 | 0
* Cc1ccc(C)c(NC(=O)Nc2ccc(C)c(-c3ccc(C(=O)Nc4ccncc4)cc3)c2)c1 | 44
* Cc1cc(-c2ccnc(Nc3cccc(C#N)c3)n2)cc(C)c1O | 0
* COC(=O)Nc1nc2cc(Oc3ccc(NC(=O)Nc4cccc(SC)c4)cc3)ccc2[nH]1.Cl | 35
* CNc1nccc(-c2ccc3c(N)n[nH]c3c2)n1 | 31
* CCn1c(-c2nonc2N)nc2c(-c3ccccc3)ncc(OCCCN)c21.O=C(O)C(F)(F)F.O=C(O)C(F)(F)F | 41
* CC(=O)Nc1cn2nc(Oc3cccc(NC(=O)c4cccc(C(F)(F)F)c4)c3)ccc2n1 | 4
* CSc1ccc(NC2=C(c3ccc(Cl)cc3)C(=O)NC2=O)cc1 | 0
* COc1cc(Nc2nccc(N3CCC(NC(=O)Nc4ccc5c(c4)OCO5)C3)n2)cc(OC)c1OC (centres unmarked) | 31
* Cl.Cl.NC(CNC(=O)c1cc(Br)c(-c2ccnc3[nH]ccc23)s1)c1ccccc1 (centres unmarked) | 0
* CN(C)c1ncnc2nc[nH]c12 | 0
* Cc1ccc(O)cc1Nc1ccnc2cc(-c3ccc(CN4CCCCC4)o3)ccc12 | 0
* Cn1cc(-c2ccc3c(c2)CCN3C(=O)Cc2cc(F)cc(F)c2F)c2c(N)ncnc21 | 41
* Nc1ncc(-c2cn[nH]c2)c2scc(-c3ccc4c(c3)CCN4C(=O)Cc3ccccc3)c12 | 0
* COc1ccc(C)c(Nc2ccnc(Nc3ccc(-c4cnc[nH]4)cc3)n2)c1.Cl | 0
* Fc1cc(Cl)ccc1Nc1ccnc2cc(-c3ccc(CN4CCSCC4)o3)ccc12 | 39

---

# Test system: JNK2
# Construct: gene MAPK9
# experimentalParameters: concentration: 1 μM, replicates: in singlicate; n = 1
# %Inh per entry
assayReadout: %Inh (%)

- CC(C)c1nc(-c2ccc(F)c(NS(=O)(=O)c3c(F)cccc3F)c2)c(-c2ccnc(Nc3ccc(N4CCOCC4)nc3)n2)s1: 70
- O=C1NC(=O)C(c2ccccc2Cl)=C1Nc1cccc(Cl)c1: 12
- COc1cccc(-c2nc(-c3ccccc3)[nH]c2-c2ccncc2)c1: 83
- O=C(Nc1n[nH]c2nc(-c3ccccc3)ccc12)C1CC1: 6
